Each entry below carries its recorded growth inhibition.
# System: Sporothrix brasiliensis CBS 133006
# procedure text: growth inhibition relative to untreated control; higher = more growth inhibition (more antifungal activity), active = 80 or more; extreme values may be limits of the assay
# experimental context: 1 µM; 48 h
assay metric: growth inhibition (%)

{"molecule": "O=C(Nc1ccc(F)c(-c2nc3cc(-c4ccccc4)cnc3[nH]2)c1)N1CCCC1", "assay metric": "growth inhibition", "endpoint value": 12.5}
{"molecule": "c1ccc2c(c1)CN(CC1CC1)CC1(CCN(Cc3c[nH]c4cnccc34)CC1)O2", "assay metric": "growth inhibition", "endpoint value": 1.25}
{"molecule": "CN(C)CCNC(=O)N1CCCN(c2ncnc3cc(-c4ccccc4)sc23)CC1", "assay metric": "growth inhibition", "endpoint value": 10.5}
{"molecule": "Clc1cccc(CO[C@H]2CCc3ccccc3[C@@H]2n2ccnn2)c1", "assay metric": "growth inhibition", "endpoint value": 15.8}
{"molecule": "O=C(c1[nH]nc2c1CCCC2)N1CCN(Cc2ccc3c(c2)OCO3)CC1", "assay metric": "growth inhibition", "endpoint value": 9.75}
{"molecule": "CCCS(=O)(=O)N1CCC(CO)(Cc2ccccc2C(F)(F)F)CC1", "assay metric": "growth inhibition", "endpoint value": 0}
{"molecule": "CC1CS(=O)(=O)CCN1/N=C/c1ccc([N+](=O)[O-])o1 (stereo unspecified)", "assay metric": "growth inhibition", "endpoint value": 6}
{"molecule": "O=C(NCc1ccoc1)N1CCN(Cc2ccc3c(c2)OCO3)CC1", "assay metric": "growth inhibition", "endpoint value": 7.5}
{"molecule": "Clc1ccc(-n2cc(COc3ccnc4ccccc34)nn2)cc1", "assay metric": "growth inhibition", "endpoint value": 13.5}
{"molecule": "COc1ccc(-c2cncc3ccc(C(=O)NCCCn4ccnc4)nc23)cc1", "assay metric": "growth inhibition", "endpoint value": 16}
{"molecule": "Cc1cc(C)c2cc(C(=O)NC3CCCCCCC3)[nH]c2c1", "assay metric": "growth inhibition", "endpoint value": 6}

* * *

Each entry below carries its recorded growth inhibition.
# Tested on: Sporothrix schenckii ATCC 32286
# procedure text: growth inhibition relative to untreated control; higher = more growth inhibition (more antifungal activity), active = 80 or more; extreme values may be limits of the assay
# experimental context: 1 µM; 48 h

{"compound": "Cc1cc(OCC(=O)Nc2ccc(C(C)C)cc2)n(C)c(=O)c1C#N", "growth inhibition / %": 8}
{"compound": "CC(C)C(Oc1cccc2ccccc12)C(=O)O (stereo not drawn)", "growth inhibition / %": 4.25}
{"compound": "CCOc1ccc2cc(-c3nn(C(C)(C)C)c(N)c3C(N)=O)cnc2c1", "growth inhibition / %": 2.5}
{"compound": "Cc1c[nH]c(CCNC(=O)c2cc(-c3ccc(Cl)cc3)cs2)n1", "growth inhibition / %": 0}
{"compound": "Cc1ccc(S(=O)(=O)n2cc(-c3ccnc(N)c3)c3cc(Br)cnc32)cc1", "growth inhibition / %": 5.25}
{"compound": "CCN(CC)CCCCCCNc1cc(OC)cc2c(C)ccnc12", "growth inhibition / %": 2.25}
{"compound": "CC(C)(C)OC(=O)N1CCC(Cn2nc(-c3cnc4ccccc4c3)c3c(N)ncnc32)CC1", "growth inhibition / %": 4.5}
{"compound": "COc1cccc(OCC(=O)c2ccc(Br)cc2)c1", "growth inhibition / %": 22}
{"compound": "Cc1ccc(Oc2ccc(NC(=O)CNc3ccccc3N3CCCC3=O)cc2)cc1", "growth inhibition / %": 0}
{"compound": "OC[C@H]1O[C@@H](n2c3ccc(Cl)cc3c3c(-c4cc5ccccc5o4)ncnc32)C(O)[C@H]1O (stereo partly drawn)", "growth inhibition / %": 18.8}
{"compound": "COc1ccc(-c2nn(C(C)C)c3ncnc(N)c23)cc1OC", "growth inhibition / %": 14.2}
{"compound": "Cc1nc(-c2ccccn2)nc(N2CCC(Cc3ccccc3)C2)c1Cl (stereo not drawn)", "growth inhibition / %": 13}
{"compound": "CN1CCN(S(=O)(=O)c2ccc(-c3ccc4c(Nc5ncc(Cl)cn5)ccnc4c3)cc2)CC1", "growth inhibition / %": 10.8}
{"compound": "CCc1c(C)nc(-n2nc(C)cc2NC(=O)c2ccccc2SC)[nH]c1=O", "growth inhibition / %": 76.8}
{"compound": "Cc1cnc(N2CCN[C@@H](Cc3ccccc3)C2)nc1Oc1ccc(-n2ccnc2)cc1", "growth inhibition / %": 6.5}
{"compound": "CCC(Sc1nc2ccccc2o1)C(=O)Nc1nnc(C)s1 (stereo not drawn)", "growth inhibition / %": 3.25}
{"compound": "O[C@@H](c1cc(C(F)(F)F)nc2c(C(F)(F)F)cccc12)[C@H]1CCCCN1", "growth inhibition / %": 15.2}
{"compound": "COc1ccc(C2=NN(C3CCCCCC3)C(=O)[C@@H]3CC=CC[C@H]23)cc1OCCCCOc1ccc(-c2nnn[nH]2)cc1", "growth inhibition / %": 9.5}

* * *

Each entry below carries its recorded growth inhibition.
# System: Sporothrix schenckii ATCC 32286
# procedure text: growth inhibition relative to untreated control; higher = more growth inhibition (more antifungal activity), active = 80 or more; extreme values may be limits of the assay
# experimental context: 1 µM; 48 h

{"compound string": "COc1cc(C2=NCCN2)ccc1-c1cn(-c2cccc(C3=NCCN3)c2)nn1", "growth inhibition (%)": 1.25}
{"compound string": "OCc1ccc(-c2cncc(Nc3cccc(Cl)c3)c2)cc1", "growth inhibition (%)": 6.75}
{"compound string": "O=C(OCc1ccccc1)N1CCC(c2cc(-c3ccncc3)c(-c3ccc(F)cc3)[nH]2)CC1", "growth inhibition (%)": 13.2}
{"compound string": "c1ccc2c(c1)CN(CC1CC1)CC1(CCN(Cc3c[nH]c4cnccc34)CC1)O2", "growth inhibition (%)": 0}
{"compound string": "Cc1nc(-c2ccccn2)nc(NCCc2ccc(S(C)(=O)=O)cc2)c1Cl", "growth inhibition (%)": 0}

* * *

# Tested on: Sporothrix schenckii ATCC 32286
# procedure text: growth inhibition relative to untreated control; higher = more growth inhibition (more antifungal activity), active = 80 or more; extreme values may be limits of the assay
# experimental context: 1 µM; 48 h
Each entry below carries its recorded growth inhibition.
assay metric: growth inhibition (%)

{"molecule": "Cc1cc(C)n2nc(C(=O)Nc3cc(C(F)(F)F)ccc3N3CCOCC3)nc2n1", "unit name": "%", "endpoint value": 12.5}
{"molecule": "O=C(Nc1ccnc(-c2cccnc2)n1)c1cc(C(F)(F)F)cc(C(F)(F)F)c1", "unit name": "%", "endpoint value": 0}
{"molecule": "Cc1[nH]c2ccccc2c1C(c1cccs1)N1CCN(C)CC1 (centres undefined)", "unit name": "%", "endpoint value": 15.2}
{"molecule": "CO[C@H]1/C=C\\O[C@@]2(C)Oc3c(C)c(O)c4c(O)c(/c(=C/NN5CCN(C)CC5)c(O)c4c3C2=O)=N\\C(=O)/C(C)=C\\C=C/[C@H](C)[C@H](O)[C@@H](C)[C@@H](O)[C@@H](C)[C@H](OC(C)=O)[C@@H]1C", "unit name": "%", "endpoint value": 11.2}
{"molecule": "c1ccc(C[C@@H]2CN(c3nccc(Oc4ccc(-n5ccnc5)cc4)n3)CCN2)cc1", "unit name": "%", "endpoint value": 9.5}
{"molecule": "Cc1cc(Cl)c(S(=O)(=O)N2CCCC2)cc1OCC(=O)NC1CCCCC1", "unit name": "%", "endpoint value": 0}
{"molecule": "COc1cccn2c(C(=O)N3CCCCC3)c(C(F)(F)F)nc12", "unit name": "%", "endpoint value": 5}
{"molecule": "Nc1ncnc2c1c(-c1cnc3ccccc3c1)nn2CC1CCNCC1", "unit name": "%", "endpoint value": 15.5}
{"molecule": "Cc1ccc2nc(Cl)c(CNCc3cccs3)cc2c1", "unit name": "%", "endpoint value": 2.25}

* * *

# System: Sporothrix brasiliensis CBS 133006
# procedure text: growth inhibition relative to untreated control; higher = more growth inhibition (more antifungal activity), active = 80 or more; extreme values may be limits of the assay
# experimental context: 1 µM; 48 h
Labels: 1 (yes) (active), 0 (no) (inactive)

{"molecule": "CN1CCN(CCCOc2ncc(Nc3ncc(-c4ccc(C(F)(F)F)c(F)c4)nc3C(N)=O)cn2)CC1", "target desc": "Sporothrix brasiliensis CBS 133006", "label class": "0 (no)"}
{"molecule": "c1csc(-c2cnc3sc(NCC4CCOCC4)nn23)c1", "target desc": "Sporothrix brasiliensis CBS 133006", "label class": "0 (no)"}
{"molecule": "CC(C)n1ncc2c(C(=O)NCC(c3cccs3)N3CCOCC3)cc(-c3ccccc3)nc21 (stereo not drawn)", "target desc": "Sporothrix brasiliensis CBS 133006", "label class": "0 (no)"}
{"molecule": "Cc1cc(Nc2ccc(C(F)(F)F)cc2)n2ccnc2n1", "target desc": "Sporothrix brasiliensis CBS 133006", "label class": "0 (no)"}
{"molecule": "CNc1nnc(Sc2cnn(-c3ccccc3)c(=O)c2Cl)s1", "target desc": "Sporothrix brasiliensis CBS 133006", "label class": "0 (no)"}
{"molecule": "Cc1cc(C)nc(-n2nc(C)cc2Nc2ccccc2)n1", "target desc": "Sporothrix brasiliensis CBS 133006", "label class": "0 (no)"}
{"molecule": "NS(=O)(=O)c1cccc(-c2ccc3ncc(N4CCOCC4)nc3c2)c1", "target desc": "Sporothrix brasiliensis CBS 133006", "label class": "0 (no)"}
{"molecule": "COc1cc(NC(=O)Cc2nn(C)c(=O)c3ccccc23)ccc1Cl", "target desc": "Sporothrix brasiliensis CBS 133006", "label class": "0 (no)"}
{"molecule": "C[C@]1(COc2ccc(N3CCC(Oc4ccc(OC(F)(F)F)cc4)CC3)cc2)Cn2cc([N+](=O)[O-])nc2O1", "target desc": "Sporothrix brasiliensis CBS 133006", "label class": "0 (no)"}
{"molecule": "NS(=O)(=O)c1cncc(-c2ccc3nccc(-c4cn[nH]c4)c3n2)c1", "target desc": "Sporothrix brasiliensis CBS 133006", "label class": "0 (no)"}
{"molecule": "CCc1nc2ccc(C(=O)NCc3ccc4c(c3)OCO4)cn2c1N(C)Cc1cccs1", "target desc": "Sporothrix brasiliensis CBS 133006", "label class": "0 (no)"}
{"molecule": "CC1(C)Cc2c(c(N3CCOCC3)nc3snc(Br)c23)CO1", "target desc": "Sporothrix brasiliensis CBS 133006", "label class": "0 (no)"}
{"molecule": "C[C@@H]1[C@H](O)[C@@H](C)/C=C/C=C/C=C/C=C/C=C/C=C/C=C/[C@H](O[C@@H]2O[C@H](C)[C@@H](O)[C@H](N)[C@@H]2O)C[C@@H]2O[C@](O)(C[C@@H](O)C[C@@H](O)[C@H](O)CC[C@@H](O)C[C@@H](O)CC(=O)O[C@H]1C)C[C@H](O)[C@H]2C(=O)O", "target desc": "Sporothrix brasiliensis CBS 133006", "label class": "0 (no)"}
{"molecule": "CC[C@@H]([C@H](C)O)n1ncn(-c2ccc(N3CCN(c4ccc(OC[C@@H]5CO[C@@](Cn6cncn6)(c6ccc(F)cc6F)C5)cc4)CC3)cc2)c1=O", "target desc": "Sporothrix brasiliensis CBS 133006", "label class": "0 (no)"}
{"molecule": "COc1cccc(-c2nc3c(N4CCCC4)cccc3n2CC2CCCN2)n1 (stereo not drawn)", "target desc": "Sporothrix brasiliensis CBS 133006", "label class": "0 (no)"}
{"molecule": "N=C(N)c1ccc(OCCCCCOc2ccc(C(=N)N)cc2)cc1", "target desc": "Sporothrix brasiliensis CBS 133006", "label class": "1 (yes)"}
{"molecule": "CNC1C(OC2C(OC3C(O)C(O)C(N=C(N)N)C(O)C3N=C(N)N)OC(C)C2(O)C=O)OC(CO)C(O)C1O (stereo not drawn)", "target desc": "Sporothrix brasiliensis CBS 133006", "label class": "0 (no)"}
{"molecule": "CC(C)C(NC(=O)Cc1cccc2ccccc12)C(=O)Nc1cccc(C#N)c1 (stereo not drawn)", "target desc": "Sporothrix brasiliensis CBS 133006", "label class": "0 (no)"}

# credit: the supplement of paper PMC7556523
